biological target: hOX1R (orexin-1 receptor) (Homo sapiens, UniProt O43613); assay: FLIPR Ca2+ flux assay, hOX1R; conditions: CHO cells expressing the orexin-1 receptor (head: hOX1R; method: rat); agonist 70 pM Ala-6,12 orexin-A
pIC50: −log10 of the molar value.

smiles_data: C[C@@H]1C[C@@H](Nc2cc(OCC(F)F)ccn2)CN1C(=O)c1ccccc1-n1ncnn1
result_comparator: <
pIC50: 5.00
//
smiles_data: Cc1c(C#N)ccnc1N[C@@H]1C[C@@H](C)N(C(=O)c2ccccc2-n2nccn2)C1
result_comparator: =
pIC50: 5.47
//
smiles_data: Cc1ccnc(N[C@@H]2C[C@@H](C)N(C(=O)c3ccccc3-n3nccn3)C2)c1
result_comparator: =
pIC50: 5.39
//
smiles_data: C[C@@H]1C[C@@H](N(C)c2cc(Br)ccn2)CN1C(=O)c1ccccc1-n1nccn1
result_comparator: =
pIC50: 5.65
//
smiles_data: C[C@@H]1C[C@@H](Nc2cc(C#N)ccn2)CN1C(=O)c1ccccc1-c1ncccn1
result_comparator: <
pIC50: 5.00
//
smiles_data: COC(=O)c1c(C#N)ccnc1N[C@@H]1C[C@@H](C)N(C(=O)c2ccccc2-n2nccn2)C1
result_comparator: =
pIC50: 5.81
//
smiles_data: C[C@@H]1C[C@@H](Nc2cc(C(F)F)ccn2)CN1C(=O)c1ccccc1-n1nccn1
result_comparator: =
pIC50: 5.79
//
smiles_data: CCOc1ccnc(N[C@@H]2C[C@@H](C)N(C(=O)c3ccccc3-n3nccn3)C2)c1
result_comparator: =
pIC50: 5.40

====

biological target: hOX1R (orexin-1 receptor) (Homo sapiens); test: FLIPR Ca2+ flux assay, hOX1R; conditions: CHO cells expressing the orexin-1 receptor (head: hOX1R; method: rat); agonist 70 pM Ala-6,12 orexin-A
Documented IC50 across a set of compounds

smiles_data: C[C@@H]1C[C@@H](Nc2cc(C#N)ccn2)CN1C(=O)c1ccccc1-n1nccn1
result_comparator: >
IC50 (µM): 10
//
smiles_data: C[C@@H]1C[C@@H](Nc2cc(F)ccn2)CN1C(=O)c1ccccc1-n1nccn1
result_comparator: >
IC50 (µM): 10
//
smiles_data: COc1ccnc(N[C@@H]2C[C@@H](C)N(C(=O)c3ccccc3-n3nccn3)C2)c1C#N
result_comparator: >
IC50 (µM): 10
//
smiles_data: CCOc1ncccc1C(=O)N1C[C@H](Nc2cc(OCC(F)F)ccn2)C[C@H]1C
result_comparator: >
IC50 (µM): 10
//
smiles_data: COc1cccnc1N[C@@H]1C[C@@H](C)N(C(=O)c2ccccc2-n2nccn2)C1
result_comparator: =
IC50 (µM): 3.39
//
smiles_data: C[C@@H]1C[C@@H](Nc2cc(OCC(F)F)ccn2)CN1C(=O)c1cccc2c1CCC2
result_comparator: >
IC50 (µM): 10
//
smiles_data: C[C@@H]1C[C@@H](Nc2cc(C#N)ccn2)CN1C(=O)c1ccccc1-n1ncnn1
result_comparator: >
IC50 (µM): 10
//
smiles_data: CC(C)Oc1ccnc(N[C@@H]2C[C@@H](C)N(C(=O)c3ccccc3-n3nccn3)C2)c1
result_comparator: =
IC50 (µM): 2.8
//
smiles_data: CCOC(=O)c1c(OC)ccnc1N[C@@H]1C[C@@H](C)N(C(=O)c2ccccc2-n2nccn2)C1
result_comparator: =
IC50 (µM): 4.07
//
smiles_data: C[C@@H]1C[C@@H](Nc2ccc(F)cn2)CN1C(=O)c1ccccc1-n1nccn1
result_comparator: =
IC50 (µM): 6.29
